B1: KRT15 (parent)
chain: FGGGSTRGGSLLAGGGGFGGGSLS

Variants of: B1
Experiment: protein stability index of a GFP-peptide fusion (GPS, HEK-293T) (PSI 1-6); higher = more stable;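 further: lentivirally expressed fusions sorted by FACS into six bins by GFP to DsRed ratio, PSI derived from sequencing read proportions per bin multiplied by bin number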
Settings: c terminus: a fixed tail appended
The variants listed here are annotated with their protein stability index.
Could you keep your reply to the number by itself?

// worked examples, protein stability index included
Supply measured protein stability index of FGGGSTRGGSYLAGGGGFGGGSLS [L11Y] in your reply.
1.97

Annotate the variant FQGGSTRGGSLLAGGGGFGGGSLS [G2Q] with its measured protein stability index.
2

***
Return value of protein stability index for input FGGGSTRTGSLLAGGGGFGGGSLS [G8T] , no commentary.
1.8

Assign protein stability index to the following record: FGGGSTRGGKLLAGGGGFGGGSLS [S10K]
1.28
